Experiment: Solubility of yellow couplers in 100 ml of ethyl acetate at 25° C.
Assay type: physicochemical
Details: 25° C.
Exercise: state measured Solubility for each of the compounds provided.
# do not omit the unit; it follows the number

CCC=CCC=CCC=CCCCCCCCC(=O)Nc1ccc(Cl)c(NC(=O)C(C(=O)C(C)(C)C)N2C(=O)NC(C)(C)C2=O)c1 (stereo not drawn)    21.4 g/100 ml
CCC(Oc1ccc(C(C)(C)CC)cc1C(C)(C)CC)C(=O)Nc1ccc(Cl)c(NC(=O)C(C(=O)C(C)(C)C)N2C(=O)NC(C)(C)C2=O)c1 (stereo not drawn) [RY-1, reference compound]    15.8 g/100 ml
CCCCCCCCCCCCCCCCCC(=O)Nc1ccc(Cl)c(NC(=O)C(C(=O)C(C)(C)C)N2C(=O)NC(C)(C)C2=O)c1 (stereo not drawn) [RY-2, reference compound]    8.5 g/100 ml

Required: Solubility, one value per compound below.
1. CCCCCCCCC=CCCCCCCCC(=O)Nc1ccc(Cl)c(NC(=O)C(C(=O)C(C)(C)C)N2C(=O)NC(C)(C)C2=O)c1 (stereo not drawn)
2. CCCCCC=CCC=CCCCCCCCC(=O)Nc1ccc(Cl)c(NC(=O)C(C(=O)C(C)(C)C)N2C(=O)NC(C)(C)C2=O)c1 (stereo not drawn)
3. CCCCCCCCC=CCCCCCCCC(=O)Nc1ccc(OC)c(NC(=O)C(C(=O)C(C)(C)C)N2C(=O)NC(C)(C)C2=O)c1 (stereo not drawn)

Reply text:
["21.0 g/100 ml", "21.2 g/100 ml", "20.8 g/100 ml"]
